Some compounds, each annotated with its measured z-score of subpopulation abundance.
Tested on: Saccharomyces cerevisiae BY4741 SeMeCo community
protocol.description: z-score of subpopulation abundance vs DMSO median, subpopulation auxotrophic for U; higher = larger share of this subpopulation than in DMSO controls
condition.details: 10 µM; 24 h; SM minimal medium; subpopulation (auxotrophy): U
Structures can show the parent of a compound that is named as a salt.
Please reply with the value in numeric form only.

Record lookup: for Saccharomyces cerevisiae BY4741 SeMeCo community, what z-score of subpopulation abundance belongs to CCn1cc(C(=O)O)c(=O)c2cc(F)c(N3CCNCC3)cc21 ?
-0.7

Next:
Lab note: need z-score of subpopulation abundance for NC(=O)c1cnccn1 [Pyrazinamide] on Saccharomyces cerevisiae BY4741 SeMeCo community, anyone have it?
1.27

Find the measured z-score of subpopulation abundance: item CC(=O)OCC1=C(C(=O)O)N2C(=O)C(NC(=O)CSC(=NC(C)C)NC(C)C)C2SC1 (stereo unspecified) , target or system Saccharomyces cerevisiae BY4741 SeMeCo community.
0.86

Checklist item: z-score of subpopulation abundance tested on Saccharomyces cerevisiae BY4741 SeMeCo community, entry C[C@@H]1C/C=C/C=C/C=C/C=C/[C@H](O[C@@H]2O[C@H](C)[C@@H](O)[C@H](N)[C@@H]2O)C[C@@H]2O[C@](O)(C[C@@H](O)C[C@H]3O[C@@H]3/C=C/C(=O)O1)C[C@H](O)[C@H]2C(=O)O , value?
4.12

Checklist item: z-score of subpopulation abundance tested on Saccharomyces cerevisiae BY4741 SeMeCo community, entry O=C(CCCN1CCC(O)(c2ccc(Cl)cc2)CC1)c1ccc(F)cc1 , value?
-0.4

So what z-score of subpopulation abundance did Nc1nc(/C(=C/CC(=O)O)C(=O)N[C@@H]2C(=O)N3C(C(=O)O)=CCS[C@H]23)cs1 [Ceftibuten dihydrate] get with Saccharomyces cerevisiae BY4741 SeMeCo community?
-0.28

So what z-score of subpopulation abundance did CC(C)[C@H](N)C(=O)OCC(CO)OCn1cnc2c(=O)[nH]c(N)nc21 (stereo partly specified) [Valganciclovir HCl] get with Saccharomyces cerevisiae BY4741 SeMeCo community?
-0.54

Give Saccharomyces cerevisiae BY4741 SeMeCo community z-score of subpopulation abundance for CNCCC(Oc1ccc(C(F)(F)F)cc1)c1ccccc1 (stereo unspecified) [Fluoxetine HCl]
0

Missing value: z-score of subpopulation abundance, Saccharomyces cerevisiae BY4741 SeMeCo community, entry CCN(CC)CCNC(=O)c1cc(S(C)(=O)=O)ccc1OC [Tiapride Hydrochloride] . Fill in?
0.29

Query the reported z-score of subpopulation abundance for Saccharomyces cerevisiae BY4741 SeMeCo community; item: O=c1ccc2ccc(OCCCCN3CCN(c4cccc5sccc45)CC3)cc2[nH]1
0.84

Saccharomyces cerevisiae BY4741 SeMeCo community / z-score of subpopulation abundance / C[C@]12CC[C@@H]3c4ccc(O)cc4C[C@@H](CCCCCCCCC[S+]([O-])CCCC(F)(F)C(F)(F)F)[C@H]3[C@@H]1CC[C@@H]2O (stereo partly specified) : value?
-0.43

Any idea what z-score of subpopulation abundance came out for C=CC(C)(O)CCC=C(C)C (stereo unspecified) on Saccharomyces cerevisiae BY4741 SeMeCo community?
1.02

Give the reported z-score of subpopulation abundance for NCCc1ccc(O)c(O)c1 [Dopamine HCl] (system: Saccharomyces cerevisiae BY4741 SeMeCo community).
-0.48

Tell me reported z-score of subpopulation abundance for O=C1Cc2cc(CCN3CCN(c4nsc5ccccc45)CC3)c(Cl)cc2N1 [Ziprasidone HCl] , tested with Saccharomyces cerevisiae BY4741 SeMeCo community.
-0.99

Hi! What's the reported z-score of subpopulation abundance for COCCCN1CCC(NC(=O)c2cc(Cl)c(N)c3c2OCC3)CC1 [Prucalopride] on Saccharomyces cerevisiae BY4741 SeMeCo community?
0.73

Tell me reported z-score of subpopulation abundance for Cc1nc(Nc2ccc(F)cc2)nc(N2CCc3ccccc3C2C)c1C (stereo unspecified) [Revaprazan Hydrochloride] , tested with Saccharomyces cerevisiae BY4741 SeMeCo community.
0.73
